target: native mouse MET on living cells (mouse, UniProt P16056 25-1379); experiment: cell-based or functional assay
Please provide measured protection from staurosporine, viability EC50, MLP29 cells for the entries that follow.

Reference set, count: 5
| Binder | Result |
| --- | --- |
| 76H10 chimeric llama-human IgG1 mAb (antibody, V domains shown, llama VH on human IgG1 CH1-CH2-CH3, llama VL on human lambda CL) VH: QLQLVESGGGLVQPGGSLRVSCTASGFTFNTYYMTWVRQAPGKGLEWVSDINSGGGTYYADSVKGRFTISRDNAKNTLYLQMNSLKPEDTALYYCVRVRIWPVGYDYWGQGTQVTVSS VL: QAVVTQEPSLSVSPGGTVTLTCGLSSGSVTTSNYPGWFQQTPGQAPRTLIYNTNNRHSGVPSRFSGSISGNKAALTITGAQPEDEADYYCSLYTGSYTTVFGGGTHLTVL | > 32 nM |
| 71G12 chimeric llama-human IgG1 mAb (antibody, V domains shown, llama VH on human IgG1 CH1-CH2-CH3, llama VL on human kappa CL) VH: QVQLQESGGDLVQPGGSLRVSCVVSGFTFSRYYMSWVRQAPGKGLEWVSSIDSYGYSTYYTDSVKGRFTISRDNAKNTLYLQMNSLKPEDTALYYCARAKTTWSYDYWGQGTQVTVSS VL: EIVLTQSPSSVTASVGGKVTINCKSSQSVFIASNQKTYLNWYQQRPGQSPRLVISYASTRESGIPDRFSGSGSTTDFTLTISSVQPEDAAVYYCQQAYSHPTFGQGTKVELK | > 32 nM |
| 71G3 chimeric llama-human IgG1 mAb (antibody, V domains shown, llama VH on human IgG1 CH1-CH2-CH3, llama VL on human lambda CL) VH: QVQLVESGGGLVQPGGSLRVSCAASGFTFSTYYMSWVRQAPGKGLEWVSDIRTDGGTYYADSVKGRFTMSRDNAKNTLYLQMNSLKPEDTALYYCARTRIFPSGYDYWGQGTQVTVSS VL: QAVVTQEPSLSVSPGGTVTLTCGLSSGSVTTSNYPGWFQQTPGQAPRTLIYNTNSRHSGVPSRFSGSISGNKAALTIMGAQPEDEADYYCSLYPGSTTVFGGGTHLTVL | 4.85 nM |
| 72F8 chimeric llama-human IgG1 mAb (antibody, V domains shown, llama VH on human IgG1 CH1-CH2-CH3, llama VL on human lambda CL) VH: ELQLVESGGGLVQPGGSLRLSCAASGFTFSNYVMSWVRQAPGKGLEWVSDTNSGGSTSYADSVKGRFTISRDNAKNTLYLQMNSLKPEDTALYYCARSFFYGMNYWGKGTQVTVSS VL: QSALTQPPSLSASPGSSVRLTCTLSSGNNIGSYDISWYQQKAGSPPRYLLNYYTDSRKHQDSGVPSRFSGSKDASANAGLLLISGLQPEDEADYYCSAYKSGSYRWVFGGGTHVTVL | > 32 nM |
| 71D6 chimeric llama-human IgG1 mAb (antibody, V domains shown, llama VH on human IgG1 CH1-CH2-CH3, llama VL on human lambda CL) VH: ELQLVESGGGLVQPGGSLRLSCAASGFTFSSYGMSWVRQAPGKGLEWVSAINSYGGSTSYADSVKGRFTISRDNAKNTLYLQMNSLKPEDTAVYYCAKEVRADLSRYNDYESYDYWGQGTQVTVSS VL: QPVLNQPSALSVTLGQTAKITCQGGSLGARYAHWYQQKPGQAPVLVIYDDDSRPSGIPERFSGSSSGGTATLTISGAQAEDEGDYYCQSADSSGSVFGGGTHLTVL | 0.95 nM |

Each binder below has a reported value. Please supply its protection from staurosporine, viability EC50, MLP29 cells.
1. 71G2 chimeric llama-human IgG1 mAb (antibody, V domains shown, llama VH on human IgG1 CH1-CH2-CH3, llama VL on human lambda CL) VH: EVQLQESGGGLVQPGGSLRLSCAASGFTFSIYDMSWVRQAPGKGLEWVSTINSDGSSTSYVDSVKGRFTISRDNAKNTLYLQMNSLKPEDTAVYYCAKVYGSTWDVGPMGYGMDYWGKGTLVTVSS VL: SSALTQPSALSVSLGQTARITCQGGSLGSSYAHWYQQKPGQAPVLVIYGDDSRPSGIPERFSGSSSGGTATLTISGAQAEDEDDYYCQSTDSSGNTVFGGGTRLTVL
2. 71A3 chimeric llama-human IgG1 mAb (antibody, V domains shown, llama VH on human IgG1 CH1-CH2-CH3, llama VL on human lambda CL) VH: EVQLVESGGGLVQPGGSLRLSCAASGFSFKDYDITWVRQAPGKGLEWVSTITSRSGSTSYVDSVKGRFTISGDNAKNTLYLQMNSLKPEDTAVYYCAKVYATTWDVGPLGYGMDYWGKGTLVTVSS VL: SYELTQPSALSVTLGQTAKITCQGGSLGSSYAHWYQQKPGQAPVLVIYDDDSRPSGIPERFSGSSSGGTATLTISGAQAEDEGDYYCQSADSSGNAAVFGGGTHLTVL
3. 71D4 chimeric llama-human IgG1 mAb (antibody, V domains shown, llama VH on human IgG1 CH1-CH2-CH3, llama VL on human lambda CL) VH: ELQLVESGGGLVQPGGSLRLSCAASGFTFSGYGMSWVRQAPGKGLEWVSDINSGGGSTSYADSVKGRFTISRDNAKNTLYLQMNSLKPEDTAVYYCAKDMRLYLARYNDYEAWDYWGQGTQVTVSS VL: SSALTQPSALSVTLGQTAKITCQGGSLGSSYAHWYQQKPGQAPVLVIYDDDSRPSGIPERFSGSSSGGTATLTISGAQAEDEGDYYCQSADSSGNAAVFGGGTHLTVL

**A:**
1. 1.99 nM
2. < 0.5 nM
3. 29.8 nM
